assay comment: qHTS RealTime-Glo MT Cell Viability Assay in HEK293 cells - 0 hour (AID 1224880); note: top concentration of the series differs between compounds; % is set by controls: 0 for no effect and ±100 for the full control effect; nearly all actives have a fitted effect of over 45% in size
setup conditions: RealTime-Glo luminescence; series mostly up to 76.8 µM
Records with an inconclusive call do not appear. Calls of active or inactive are those of the source. Calls come from the whole dose curve; as a rule, active = well fitted cell-killing curve with a large enough effect in the repeat runs; inconclusive = weak or mixed curves, or effect the other way; inactive = flat fitted curve, though single readings scatter.

compound | activity change, negative = cytotoxicity
CCCCCSCCCCC | inactive
CCn1ccnc1CC1COc2ccccc2O1 (stereo not given) | inactive
COC(=O)CCSCCC(=O)OC | inactive
OCCOc1ccc(OCCO)cc1 | inactive
C=C(C)C(=O)OCCCCCCCC(C)C | inactive
CCC=O | inactive
Brc1c(NC2=NCCN2)ccc2nccnc12 | inactive
O=C(O)CN(CCOCCOCCN(CC(=O)O)CC(=O)O)CC(=O)O | 4.27% [at 0.29 µM] (inactive)
CCCCCCCCCCCC | inactive
OCCCC1CCCCC1 | inactive
O=C(O)Cc1ccc(CCNS(=O)(=O)c2ccc(Cl)cc2)cc1 | inactive
CCCCOCCOCCOCCCC | inactive
O=c1cc(CO)occ1O | inactive
CCOC(=O)c1c(C)n(C)c2ccc(O)cc12 | inactive
CCN1CCC[C@H]1CNC(=O)c1c(O)c(Cl)cc(Cl)c1OC | inactive
N=c1nc(N2CCCCC2)cc(N)n1O | inactive
CN1CCN(c2cc3c(cc2F)c(=O)c(C(=O)O)cn3-c2ccc(F)cc2)CC1 | inactive
CCN(CC)CCNC(=O)c1cc(S(C)(=O)=O)ccc1OC | inactive
N=C(N)c1ccccc1 | inactive
Cc1[nH]c(=O)c(C#N)cc1-c1ccc2nccn2c1 | inactive
CC/C=C\CCOC(C)=O | inactive
O=C[C@H](O)[C@@H](O)[C@H](O)[C@H](O)CO | inactive
NC(=O)Nc1ccccc1 | inactive
NCCCNCCSP(=O)(O)O | -1.72% [at 6.97 µM] (inactive)
CCCCCCCCCCCCCCCCC | inactive
N[C@@H](C(=O)N[C@@H]1C(=O)N2C(C(=O)O)=C(Cl)CS[C@H]12)c1ccccc1 | 12.5% [at 6.97 µM] (inactive)
Cc1cccn2c(=O)c(-c3nnn[nH]3)cnc12 | 7.45% [at 15.8 µM] (inactive)
COc1ccc2c(c1)CCCC2=O | inactive
C[C@@H]1CCN(C(=O)[C@H](CCCN=C(N)N)NS(=O)(=O)c2cccc3c2NC[C@H](C)C3)[C@@H](C(=O)O)C1 | inactive
Cc1c(NC(C)C)c(=O)n(-c2ccccc2)n1C | inactive
NC(=O)c1ccc(N)cc1 | inactive
CCSC(=O)N(CC(C)C)CC(C)C | inactive
CCCc1cc(C(N)=S)ccn1 | inactive
CC(C(=O)O)c1ccc(CC2CCCC2=O)cc1 (stereo not given) | inactive
O=C1CCCC(=O)C1 | inactive
Nc1cc(=O)[nH]c(N)n1 | inactive
COC(=O)NN | inactive
CCOc1ccc(C(=O)OCCN(CC)CC)cc1 | inactive
COC(C)(C)CCCC(C)CC=O (stereo not given) | inactive
CC(=O)OC/C=C(\C)CC/C=C(\C)CCC=C(C)C | inactive
Cc1ccc(=O)n(-c2ccccc2)c1 | inactive
NC(=O)COCCN1CCN(C(c2ccccc2)c2ccc(Cl)cc2)CC1 (stereo not given) | inactive
C[N+](C)(C)CCCCCC[N+](C)(C)C | inactive
Cn1c(N)c(N=O)c(=O)n(C)c1=O | inactive
CC(C)NCCCC1(C(N)=O)c2ccccc2-c2ccccc21 | inactive
CCCCC/C=C\CCC=O | inactive
CN(C)CCCNCCCN(C)C | inactive
Oc1ccc(C2CNCCc3c2cc(O)c(O)c3Cl)cc1 (stereo not given) | inactive
C1OCOCO1 | inactive
CCCCCCCCCCCCN(CCCCCCCCCCCC)CCCCCCCCCCCC | inactive
COCCc1ccc(OCC(O)CNC(C)C)cc1 (stereo not given) | inactive
CCS(=O)(=O)c1ccc(OC)c(C(=O)OC)c1 | inactive
N[C@H]1CN(c2c(F)cc3c(=O)c(C(=O)O)cn(C4C[C@H]4F)c3c2Cl)CC12CC2 (stereo not given in full) | inactive
Cc1cnc(NS(=O)(=O)c2ccc(N)cc2)nc1 | inactive
CC(C)(C)c1ccc(O)c(O)c1 | inactive
O=C1CC2CC1C1CCCC21 (stereo not given) | inactive
COC(=O)c1ccc(C)cc1C1=NC(C)(C(C)C)C(=O)N1 (stereo not given) | inactive
CC/C=C\CC/C=C/C(OCC)OCC | inactive
CCN(Cc1ccncc1)C(=O)C(CO)c1ccccc1 (stereo not given) | inactive
Cc1ccc(C#N)cc1 | inactive

Provenance of the data: PubChem BioAssay (Tox21)
